// provenance: patent US20180008587A1

The following compounds are listed with their measured Emax values.
biological target: F876L mutant Androgen Receptor (AR-F876L) (Homo sapiens, UniProt P10275, F877L); construct: expressed in transfected cells; host or cells: LNCaP (LNCaP F876L); experiment: LNCaP-AR-F876L ANT reporter assay (ARE firefly luciferase, antagonist mode); format: cell-based; settings: read-out: LNCaP-AR-F876L ANT MAX % Inh
Sequence (P10275 whole entry F877L): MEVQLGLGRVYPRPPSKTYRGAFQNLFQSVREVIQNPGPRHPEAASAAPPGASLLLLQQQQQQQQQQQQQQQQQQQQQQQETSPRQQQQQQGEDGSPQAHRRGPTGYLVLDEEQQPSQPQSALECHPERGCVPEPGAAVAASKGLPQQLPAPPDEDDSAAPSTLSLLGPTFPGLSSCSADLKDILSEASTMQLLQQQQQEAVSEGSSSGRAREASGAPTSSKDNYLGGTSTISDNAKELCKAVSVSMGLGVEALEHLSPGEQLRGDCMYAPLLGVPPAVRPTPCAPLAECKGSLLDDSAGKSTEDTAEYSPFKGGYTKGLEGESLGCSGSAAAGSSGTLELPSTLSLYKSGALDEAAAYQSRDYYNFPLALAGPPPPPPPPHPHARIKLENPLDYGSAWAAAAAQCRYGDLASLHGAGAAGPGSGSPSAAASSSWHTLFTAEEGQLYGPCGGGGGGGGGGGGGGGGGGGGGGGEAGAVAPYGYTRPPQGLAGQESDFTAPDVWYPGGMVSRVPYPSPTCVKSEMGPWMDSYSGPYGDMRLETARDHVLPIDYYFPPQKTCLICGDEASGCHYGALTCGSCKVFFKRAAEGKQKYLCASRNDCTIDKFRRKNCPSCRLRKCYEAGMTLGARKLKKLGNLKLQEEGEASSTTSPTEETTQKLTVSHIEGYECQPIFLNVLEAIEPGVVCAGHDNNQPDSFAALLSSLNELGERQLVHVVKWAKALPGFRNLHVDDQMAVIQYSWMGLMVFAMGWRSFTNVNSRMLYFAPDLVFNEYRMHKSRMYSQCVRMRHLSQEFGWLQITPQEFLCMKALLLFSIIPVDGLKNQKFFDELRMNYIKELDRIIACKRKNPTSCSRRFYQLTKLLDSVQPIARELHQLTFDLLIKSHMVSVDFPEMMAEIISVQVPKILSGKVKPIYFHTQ
observation-type: Emax (%)

[[record]]
molecular_string = "N#Cc1ncc(N2C(=O)C3(CCC3)N(c3ccc(C(=O)NCCCc4ccccc4)c(F)c3)C2=S)cc1C(F)(F)F"
experimental_target = "F876L mutant Androgen Receptor (AR-F876L) (Homo sapiens, UniProt P10275, F877L)"
unit = "%"
endpoint_value = 95.5

[[record]]
molecular_string = "N#Cc1ncc(N2C(=O)C3(CCC3)N(c3ccc(OC4CCN(CCO)CC4)cc3)C2=S)cc1C(F)(F)F"
experimental_target = "F876L mutant Androgen Receptor (AR-F876L) (Homo sapiens, UniProt P10275, F877L)"
unit = "%"
endpoint_value = 101

[[record]]
molecular_string = "Cc1ccc(NC(=O)c2ccc(N3C(=S)N(c4cnc(C#N)c(C)c4)C(=O)C34CCC4)cc2F)cn1"
experimental_target = "F876L mutant Androgen Receptor (AR-F876L) (Homo sapiens, UniProt P10275, F877L)"
unit = "%"
endpoint_value = 100

[[record]]
molecular_string = "N#Cc1ncc(N2C(=O)C3(CCC3)N(c3ccc(C(=O)NCc4ccccc4)c(F)c3)C2=S)cc1C(F)(F)F"
experimental_target = "F876L mutant Androgen Receptor (AR-F876L) (Homo sapiens, UniProt P10275, F877L)"
unit = "%"
endpoint_value = 91.3

[[record]]
molecular_string = "Cc1cc(N2C(=O)C3(CCC3)N(c3ccc(C4CCOCC4)cc3)C2=S)cnc1C#N"
experimental_target = "F876L mutant Androgen Receptor (AR-F876L) (Homo sapiens, UniProt P10275, F877L)"
unit = "%"
endpoint_value = 95.3

[[record]]
molecular_string = "CN1CCC(Oc2ccc(N3C(=S)N(c4cnc(C#N)c(C(F)(F)F)c4)C(=O)C3(C)C)cc2)CC1"
experimental_target = "F876L mutant Androgen Receptor (AR-F876L) (Homo sapiens, UniProt P10275, F877L)"
unit = "%"
endpoint_value = 98.1

[[record]]
molecular_string = "Cc1cncc(-c2ccc(N3C(=S)N(c4cnc(C#N)c(C)c4)C(=O)C34CCC4)cc2)c1"
experimental_target = "F876L mutant Androgen Receptor (AR-F876L) (Homo sapiens, UniProt P10275, F877L)"
unit = "%"
endpoint_value = 97.8

[[record]]
molecular_string = "N#Cc1ncc(N2C(=O)C3(CCC3)N(c3ccc(C(=O)NCc4ccccn4)c(F)c3)C2=S)cc1C(F)(F)F"
experimental_target = "F876L mutant Androgen Receptor (AR-F876L) (Homo sapiens, UniProt P10275, F877L)"
unit = "%"
endpoint_value = 101

[[record]]
molecular_string = "N#Cc1ncc(N2C(=O)C3(CCC3)N(c3ccc(Oc4ccncn4)cc3)C2=S)cc1C(F)(F)F"
experimental_target = "F876L mutant Androgen Receptor (AR-F876L) (Homo sapiens, UniProt P10275, F877L)"
unit = "%"
endpoint_value = 97.5

[[record]]
molecular_string = "N#Cc1ncc(N2C(=O)C3(CCC3)N(c3ccccc3)C2=S)cc1C(F)(F)F"
experimental_target = "F876L mutant Androgen Receptor (AR-F876L) (Homo sapiens, UniProt P10275, F877L)"
unit = "%"
endpoint_value = 99.5

[[record]]
molecular_string = "N#Cc1ncc(N2C(=O)C3(CCC3)N(c3ccc(C(=O)NCc4cccnc4)c(F)c3)C2=S)cc1C(F)(F)F"
experimental_target = "F876L mutant Androgen Receptor (AR-F876L) (Homo sapiens, UniProt P10275, F877L)"
unit = "%"
endpoint_value = 97.4

[[record]]
molecular_string = "CC(C)(O)CNC(=O)c1ccc(N2C(=S)N(c3cnc(C#N)c(C(F)(F)F)c3)C(=O)C23CCC3)cc1F"
experimental_target = "F876L mutant Androgen Receptor (AR-F876L) (Homo sapiens, UniProt P10275, F877L)"
unit = "%"
endpoint_value = 97.2

[[record]]
molecular_string = "N#Cc1ncc(N2C(=O)C3(CCC3)N(c3cccc(CO)c3)C2=S)cc1C(F)(F)F"
experimental_target = "F876L mutant Androgen Receptor (AR-F876L) (Homo sapiens, UniProt P10275, F877L)"
unit = "%"
endpoint_value = 100

[[record]]
molecular_string = "N#Cc1ncc(N2C(=O)C3(CCC3)N(c3ccc4[nH]ncc4c3)C2=S)cc1C(F)(F)F"
experimental_target = "F876L mutant Androgen Receptor (AR-F876L) (Homo sapiens, UniProt P10275, F877L)"
unit = "%"
endpoint_value = 98.2

[[record]]
molecular_string = "N#Cc1ncc(N2C(=O)C3(CCC3)N(c3ccc(OCCCN4CCCC4)c(F)c3)C2=S)cc1C(F)(F)F"
experimental_target = "F876L mutant Androgen Receptor (AR-F876L) (Homo sapiens, UniProt P10275, F877L)"
unit = "%"
endpoint_value = 100

[[record]]
molecular_string = "C#CCNC(=O)c1ccc(N2C(=S)N(c3cnc(C#N)c(C(F)(F)F)c3)C(=O)C23CCC3)cc1F"
experimental_target = "F876L mutant Androgen Receptor (AR-F876L) (Homo sapiens, UniProt P10275, F877L)"
unit = "%"
endpoint_value = 94.1

